Attribution: paper PMC10873978

Tested on: A549 cell line
method summary: In vitro cytotoxic activity, MTT method, A549
test context: A549, Conc. 3.125 µMol
Description: Cell lines: The in vitro human breast cancerous cell line (MCF7), lung cancerous cell lines (A549) and normal cell lines were purchased from Serum and Vaccine formulation in Cairo-Egypt. In vitro cytotoxic activity of all synthesized compounds against two human breast cell line (MCF7) and lung cell lines (A549) was evaluated according to the MTT method. […] Finally read the optical density at 560 nm and subtract background at 620 nm. […]
// reported Toxicity % for each item listed

compound: CC(=O)C1C(c2ccc(N(C)C)cc2)c2c(C)nc3sc(C(=O)Nc4ccc(Cl)cc4)c(N)c3c2CC1(C)O (stereo not shown) [Compound 8c]
Toxicity % (%): 84.18
//
compound: CC(=O)C1C(c2ccc(N(C)C)cc2)c2c(C)nc(SCC(=O)Nc3ccc(C)cc3)c(C#N)c2CC1(C)O (stereo not shown) [Compound 7b]
Toxicity % (%): 72.39
//
compound: CC(=O)C1C(c2ccc(N(C)C)cc2)c2c(C)nc3sc(C(=O)Nc4ccc(C)cc4)c(N)c3c2CC1(C)O (stereo not shown) [Compound 8b]
Toxicity % (%): 70.69
//
compound: CSc1nc(C)c2c(c1C#N)CC(C)(O)C(C(C)=O)C2c1ccc(N(C)C)cc1 (stereo not shown) [Compound 3]
Toxicity % (%): 53.18
//
compound: CC(=O)C1C(c2ccc(N(C)C)cc2)c2c(C)nc(SCC(=O)Nc3ccc(Cl)cc3)c(C#N)c2CC1(C)O (stereo not shown) [Compound 7c]
Toxicity % (%): 77.2
//
compound: CC(=O)C1C(c2ccc(N(C)C)cc2)c2c(C)nc3sc(C(=O)Nc4ccccc4)c(N)c3c2CC1(C)O (stereo not shown) [Compound 8a]
Toxicity % (%): 74.67
//
compound: CCOC(=O)CSc1nc(C)c2c(c1C#N)CC(C)(O)C(C(C)=O)C2c1ccc(N(C)C)cc1 (stereo not shown) [Compound 4]
Toxicity % (%): 70.97
//
compound: CC(=O)C1C(c2ccc(N(C)C)cc2)c2c(C)nc(SCC(N)=O)c(C#N)c2CC1(C)O (stereo not shown) [Compound 5]
Toxicity % (%): 69.66
//
compound: COc1cccc2c1C(=O)c1c(O)c3c(c(O)c1C2=O)C[C@@](O)(C(=O)CO)C[C@@H]3O[C@H]1C[C@H](N)[C@H](O)[C@H](C)O1 [Douxrbicin]
Toxicity % (%): 93.56
//
compound: CC(=O)C1C(c2ccc(N(C)C)cc2)c2c(C)[nH]c(=S)c(C#N)c2CC1(C)O (stereo not shown) [Compound 1]
Toxicity % (%): 59.76

* * *

method summary: Cytotoxicity on normal cell line WI-38
Assay type: cell-based, human
test context: human, WI-38 cells (normal fetal lung fibroblasts), WI38, 1.55uM (log conc. 0.19); read-out: % viability

compound: CC(=O)c1ccc(NC(=O)c2sc3nc(C)c4c(c3c2N)CC(C)(O)C(C(C)=O)C4c2ccc(N(C)C)cc2)cc1 (stereo not shown)
viability at 1.55 µM / %: 96.7

* * *

// reported Viability % for each item listed
System: A549 cell line
method summary: In vitro cytotoxic activity, MTT method, A549
test context: A549, Conc. 0.04875 µMol

compound: CC(=O)C1C(c2ccc(N(C)C)cc2)c2c(C)nc(SCC(=O)Nc3ccccc3)c(C#N)c2CC1(C)O (stereo not shown)
result unit: %
Viability %: 99.9
--
compound: CC(=O)C1C(c2ccc(N(C)C)cc2)c2c(C)nc(SCC(=O)Nc3ccc(Cl)cc3)c(C#N)c2CC1(C)O (stereo not shown)
result unit: %
Viability %: 96.54
--
compound: CC(=O)c1ccc(NC(=O)CSc2nc(C)c3c(c2C#N)CC(C)(O)C(C(C)=O)C3c2ccc(N(C)C)cc2)cc1 (stereo not shown)
result unit: %
Viability %: 98.02
--
compound: CC(=O)C1C(c2ccc(N(C)C)cc2)c2c(C)nc(SCC(=O)Nc3ccc(C)cc3)c(C#N)c2CC1(C)O (stereo not shown)
result unit: %
Viability %: 99.7534

* * *

Test system: MCF7 cell line
method summary: In vitro cytotoxic activity, MTT method, MCF7
Type: cell-based, human
test context: MCF7, Conc. 3.125 µMol

compound: CC(=O)C1C(c2ccc(N(C)C)cc2)c2c(C)nc3sc(C(=O)Nc4ccc(Cl)cc4)c(N)c3c2CC1(C)O (stereo not shown)
Viability %, %: 3.554
//
compound: CC(=O)C1C(c2ccc(N(C)C)cc2)c2c(C)nc3sc(C(=O)Nc4ccc(C)cc4)c(N)c3c2CC1(C)O (stereo not shown)
Viability %, %: 75.37
//
compound: CC(=O)c1ccc(NC(=O)c2sc3nc(C)c4c(c3c2N)CC(C)(O)C(C(C)=O)C4c2ccc(N(C)C)cc2)cc1 (stereo not shown)
Viability %, %: 5.392
//
compound: CC(=O)C1C(c2ccc(N(C)C)cc2)c2c(C)nc3sc(C(=O)Nc4ccccc4)c(N)c3c2CC1(C)O (stereo not shown)
Viability %, %: 12.79

* * *

Tested on: A549 cell line
method summary: In vitro cytotoxic activity, MTT method, A549
test context: A549, Conc. 0.781 µMol
Protocol: Cell lines: The in vitro human breast cancerous cell line (MCF7), lung cancerous cell lines (A549) and normal cell lines were purchased from Serum and Vaccine formulation in Cairo-Egypt. In vitro cytotoxic activity of all synthesized compounds against two human breast cell line (MCF7) and lung cell lines (A549) was evaluated according to the MTT method. […] Finally read the optical density at 560 nm and subtract background at 620 nm. […]
Viability % strictly under 60% means rule met; at 60% or over means rule not met.

compound: CC(=O)C1C(c2ccc(N(C)C)cc2)c2c(C)nc3sc(C(=O)Nc4ccc(Cl)cc4)c(N)c3c2CC1(C)O (centres unmarked)
class assignment: rule met

compound: CC(=O)C1C(c2ccc(N(C)C)cc2)c2c(C)nc(SCC#N)c(C#N)c2CC1(C)O (centres unmarked)
class assignment: rule not met

compound: CC(=O)C1C(c2ccc(N(C)C)cc2)c2c(C)nc3sc(C(=O)Nc4ccc(C)cc4)c(N)c3c2CC1(C)O (centres unmarked)
class assignment: rule met

compound: CSc1nc(C)c2c(c1C#N)CC(C)(O)C(C(C)=O)C2c1ccc(N(C)C)cc1 (centres unmarked)
class assignment: rule not met

compound: CC(=O)C1C(c2ccc(N(C)C)cc2)c2c(C)[nH]c(=S)c(C#N)c2CC1(C)O (centres unmarked)
class assignment: rule not met

compound: CC(=O)C1C(c2ccc(N(C)C)cc2)c2c(C)nc(SCC(=O)Nc3ccccc3)c(C#N)c2CC1(C)O (centres unmarked)
class assignment: rule not met

compound: CCOC(=O)CSc1nc(C)c2c(c1C#N)CC(C)(O)C(C(C)=O)C2c1ccc(N(C)C)cc1 (centres unmarked)
class assignment: rule not met

compound: COc1cccc2c1C(=O)c1c(O)c3c(c(O)c1C2=O)C[C@@](O)(C(=O)CO)C[C@@H]3O[C@H]1C[C@H](N)[C@H](O)[C@H](C)O1
class assignment: rule met

compound: CC(=O)C1C(c2ccc(N(C)C)cc2)c2c(C)nc(SCC(=O)Nc3ccc(C)cc3)c(C#N)c2CC1(C)O (centres unmarked)
class assignment: rule not met

compound: CC(=O)c1ccc(NC(=O)CSc2nc(C)c3c(c2C#N)CC(C)(O)C(C(C)=O)C3c2ccc(N(C)C)cc2)cc1 (centres unmarked)
class assignment: rule met

compound: CC(=O)c1ccc(NC(=O)c2sc3nc(C)c4c(c3c2N)CC(C)(O)C(C(C)=O)C4c2ccc(N(C)C)cc2)cc1 (centres unmarked)
class assignment: rule met

compound: CC(=O)C1C(c2ccc(N(C)C)cc2)c2c(C)nc(SCC(=O)Nc3ccc(Cl)cc3)c(C#N)c2CC1(C)O (centres unmarked)
class assignment: rule met

compound: CC(=O)C1C(c2ccc(N(C)C)cc2)c2c(C)nc(SCC(N)=O)c(C#N)c2CC1(C)O (centres unmarked)
class assignment: rule not met

* * *

System: MCF7 cell line
method summary: In vitro cytotoxic activity, MTT method, MCF7
Assay type: cell-based, human
test context: MCF7, Conc. 3.125 µMol
// reported Toxicity % for each item listed
experimental endpoint: Toxicity % (%)

molecule: CC(=O)C1C(c2ccc(N(C)C)cc2)c2c(C)nc3sc(C(=O)Nc4ccccc4)c(N)c3c2CC1(C)O (stereo not shown) [Compound 8a]
reading: 87.21
--
molecule: CC(=O)C1C(c2ccc(N(C)C)cc2)c2c(C)nc3sc(C(=O)Nc4ccc(Cl)cc4)c(N)c3c2CC1(C)O (stereo not shown) [Compound 8c]
reading: 96.45
--
molecule: CC(=O)c1ccc(NC(=O)c2sc3nc(C)c4c(c3c2N)CC(C)(O)C(C(C)=O)C4c2ccc(N(C)C)cc2)cc1 (stereo not shown) [Compound 8d]
reading: 94.61
--
molecule: CC(=O)C1C(c2ccc(N(C)C)cc2)c2c(C)nc3sc(C(=O)Nc4ccc(C)cc4)c(N)c3c2CC1(C)O (stereo not shown) [Compound 8b]
reading: 24.63
